Just for reference, ChEMBL document CHEMBL1201862 is where these values come from.

# Test system: OVCAR-3
# procedure text: NCI tumour cell line growth inhibition, 48 h
The source made the active and inactive calls. Cut-off read from the data, not from the text of the source: active = GI50 up to about 1.1 µM and inactive = higher.
The categories you may choose from are active, inactive

Prompt: I'd appreciate the recorded outcome for CN(C)CC1CCCC/C1=N/OC(=O)c1ccc(Cl)c(Cl)c1 (centres undefined) from this test.
Response: inactive

###

# Tested on: SW-620
# procedure text: NCI tumour cell line growth inhibition, 48 h
Activity calls are given as the source filed them. No stated cut-off is given here; in the data, active = GI50 up to about 1.1 µM and inactive = higher.
The categories you may choose from are 1 = active, -1 = inactive

Prompt: I'd appreciate the recorded outcome for CC(=O)Nc1ccc(C(=O)NN2C(=O)C(Cl)C2/C=C/c2ccccc2)cc1 (stereo not drawn) from this test.
Response: -1

Prompt: And "CN(C)S(=O)(=O)Nc1ccccn1" ?
Response: -1

Prompt: And C=CCOc1ccc(C2C(C(=O)OCC)C(=O)CC(C)(O)C2C(=O)OCC)cc1OC (stereo not drawn) ?
Response: -1

Prompt: And "Nc1nn2c(nc(N)c3c(N)n[nH]c32)c1/N=N\c1ccc(Br)cc1" ?
Response: -1

Prompt: And COC(=O)CC(c1ccccc1)C(C#N)(OP1(=O)OC(c2ccccc2)C(C)N1C)c1ccccc1 (stereo not drawn) ?
Response: -1

Prompt: And COC1(OC)N=C(N)C2(C#N)C(C)CC(=O)N(N(C)C)C12C#N (stereo not drawn) ?
Response: -1

Prompt: And "CCOc1ccc2ccccc2c1NC1=NCCO1" ?
Response: -1

Prompt: And "Cn1ccnc1Oc1ccc(Cl)cc1" ?
Response: -1

###

# Tested on: T47D
# procedure text: NCI tumour cell line growth inhibition, 48 h
Active and inactive are the calls of the source. Cut-off read from the data, not from the text of the source: active = GI50 up to about 1.1 µM and inactive = higher.
Below, each entry is listed with its recorded GI50.

Examples from the recorded data:
Cc1cn(C2CC(O)C(COP(=O)(O)OC3CC(n4c[n+]([BH2-]C#N)c5c(=O)[nH]c(N)nc54)OC3CO)O2)c(=O)[nH]c1=O (configuration not stated)    > 100 µM (inactive)
CC1=C2C(=CO[C@H](C)[C@H]2C)C(O)=C(C(=O)O)C1=O [CITRININ]    29.2 µM (inactive)
CC1(O)/C(=N/O)CC2CC1C2(C)C (configuration not stated)    > 100 µM (inactive)
COc1ccc(-c2nnc3nc4ccccc4n3c2O)cc1    > 100 µM (inactive)

Prompt: Entry "O=C(/C=C/c1ccc(O)c(O)c1)OCCCc1ccccc1" has what GI50?
Response: 16.4 µM (inactive)

Prompt: And COc1ccc(/C=C2\CCC(C)c3c2nc(N)c(C#N)c3-c2ccc(OC)c(OC)c2)cc1OC (configuration not stated) ?
Response: 1.13 µM (inactive)

Prompt: And "O=P(O)(O)CCP(=O)(O)O" ?
Response: > 100 µM (inactive)

Prompt: And "Nc1n2nc(-c3ccccc3)sc2n[n+]1CC(=O)c1ccccc1" ?
Response: 30.4 µM (inactive)

Prompt: And O=C(CNC(=O)OCc1ccccc1)NCCCCC(NC(=O)OCc1ccccc1)C(=O)O (configuration not stated) ?
Response: > 100 µM (inactive)

Prompt: And COC1(OC)N=C(N)C2(C#N)C(C)CC(=O)N(N(C)C)C12C#N (configuration not stated) ?
Response: > 100 µM (inactive)

Prompt: And "CC1(C)SCc2nc3ccccc3n21" ?
Response: > 100 µM (inactive)

Prompt: And "CCCNc1ncnc2c1ncn2C" ?
Response: 44.4 µM (inactive)

Prompt: And "O=S(=O)(O)c1cc(/N=N/c2cccc3ccccc23)c(O)c2ncccc12" ?
Response: 55.7 µM (inactive)

Prompt: And Nc1ncnc2c1nc(-c1ccccc1)n2C1OC(CO)C(O)C1O (configuration not stated) ?
Response: > 100 µM (inactive)

Prompt: And "COc1cc2c(cc1OC)C(=O)/C(=C/c1ccc(Cl)cc1)CC2" ?
Response: > 10 µM (inactive)

Prompt: And "COc1ccc(OC)c(C(=O)/C=C/c2cc(O)c(O)cc2F)c1" ?
Response: 5.85 µM (inactive)

Prompt: And COC(=O)[C@H](Cc1c[nH]c2ccccc12)NC(=O)OCC1OC(n2cc(C)c(=O)[nH]c2=O)CC1N=[N+]=[N-] (some centres not stated) ?
Response: > 100 µM (inactive)

Prompt: And C#CCNC(Cc1c[nH]cn1)C(=O)O (configuration not stated) ?
Response: > 100 µM (inactive)

Prompt: And CN(C)CC1CN/C(=N\C(=O)Nc2ccccc2)O1 (configuration not stated) ?
Response: > 100 µM (inactive)

Prompt: And "S=C(Nc1ccc2c(c1)oc1ccccc12)c1cccs1" ?
Response: 3.37 µM (inactive)

Prompt: And "Cc1ccc(CS(=O)(=O)C/N=C2\Sc3ccccc3N\C2=C/C(=O)c2ccc(Cl)cc2)cc1" ?
Response: 1.71 µM (inactive)

Prompt: And "CCOC(=O)c1nnsc1N/N=C\c1ccc([N+](=O)[O-])cc1" ?
Response: > 100 µM (inactive)

###

Below, each entry is listed with its recorded GI50.
# System: OVCAR-8
# procedure text: NCI tumour cell line growth inhibition, 48 h
Active and inactive are the calls of the source. No stated cut-off is given here; in the data, active = GI50 up to about 1.1 µM and inactive = higher.

Examples from the recorded data:
O=C(O)c1cc(-c2ccc3cc(O)c(O)cc3c2)ccc1O    > 12.5 µM (inactive)
CCOC(=O)CNC(=O)c1nc[nH]c1/N=N/N(C)C    > 100 µM (inactive)
O=C(O)/C=C(/C(=O)O)C12CCN3CC4=CCOC5CC(=O)NC1C5C4CC32 (stereo not drawn)    > 100 µM (inactive)
CCOc1ccc2ccccc2c1NC1=NCCO1    74.6 µM (inactive)
Cc1ccc(SC2C(C)(C)N(C(C)C)P2(=O)N(C(C)C)C(C)C)cc1 (stereo not drawn)    45.5 µM (inactive)
O=C(CCc1n[nH]c(=S)o1)Nc1cc(Cl)c(Cl)cc1Cl    51.2 µM (inactive)
CC(=O)Oc1c2c(c(CC=C(C)C)c3c1C(=O)C1=C[C@@H]4CC5C(C)(C)OC(C/C=C(/C)C(=O)O)(C4=O)[C@@]15O3)OC(C)(CCC=C(C)C)C=C2 (stereo partly drawn)    0.184 µM (active)
Nc1ccc(C(=O)N/C(=C\c2cccc([N+](=O)[O-])c2)c2nc3c(O)nc(S)nc3[nH]2)cc1    31 µM (inactive)
CCOC(=O)CCCn1nnc(C(=O)OCC)c1C(=O)OCC    > 100 µM (inactive)
Cc1c(O)nc(/C=C/C(=O)O)nc1C(=O)O    > 100 µM (inactive)

Prompt: Entry "CN(C)CCC(CCN(C)C)=NO" has what GI50?
Response: > 100 µM (inactive)

Prompt: And "C=C(C)C[C@H](Sc1nc2ccccc2s1)[C@H](C)O" ?
Response: 34.3 µM (inactive)

Prompt: And "COC(=O)c1cc(C)n2c1CS[C@@H]2c1ccccc1" ?
Response: 44.4 µM (inactive)

Prompt: And "O=C(Nc1ccc(Cl)c(Cl)c1)OCCN1c2ccccc2Sc2ccccc21" ?
Response: > 10 µM (inactive)

Prompt: And "COc1ccc(-n2nnc3c(C#N)c(-c4ccccc4)c(C)n3c2=O)cc1" ?
Response: 27.4 µM (inactive)

Prompt: And "CCCn1c(SCCSc2c3ccccc3c(-c3nc(F)nc(F)n3)n2CCC)c2ccccc2c1-c1nc(F)nc(F)n1" ?
Response: > 100 µM (inactive)

Prompt: And "COc1nc(-c2cn(S(=O)(=O)c3ccc(C)cc3)c3ccc(Br)cc23)cc(C(F)(F)F)c1C#N" ?
Response: 25.6 µM (inactive)

Prompt: And "COC(=O)[C@H](C)NC(=O)[C@H](CSC)N1C(=O)N[C@@H](C(C)C)C1=O" ?
Response: > 100 µM (inactive)

###

# Test system: SK-OV-3
# procedure text: NCI tumour cell line growth inhibition, 48 h
Activity calls are given as the source filed them. No stated cut-off is given here; in the data, active = GI50 up to about 1.1 µM and inactive = higher.
The categories you may choose from are 1 (active), 0 (inactive)

CC(=O)OCCOCNC(=S)N/N=C/c1ccc(Br)s1    0

Prompt: I'd appreciate the recorded outcome for "Cc1c2ncccc2c(C)c2c1[nH]c1ccccc12" from this test.
Response: 0

Prompt: And "CN1C/C(=C\c2ccco2)c2nc(N)nc(-c3ccco3)c2C1" ?
Response: 0

Prompt: And "COC(C)(C)CCc1[nH]c2ccccc2c1CC(=O)NCCc1cncn1C" ?
Response: 0

Prompt: And "Nc1ccccc1C(=O)NC(=O)Nc1ccc(Oc2ncc(Br)cn2)c(Cl)c1" ?
Response: 1

Prompt: And "[N-]=[N+]=CC(=O)CCC(=O)N(c1ccccc1)c1ccccc1" ?
Response: 0

Prompt: And "S=C(N/N=C(/c1ccccc1)c1ccccn1)Nc1cccc(Cl)c1" ?
Response: 1

Prompt: And "CC(C)(C)c1ccc2c(c1)CNCCNCc1cc(C(C)(C)C)ccc1OCC1(CO2)COc2ccc(C(C)(C)C)cc2CNCCNCc2cc(C(C)(C)C)ccc2OC1" ?
Response: 0

Prompt: And "Cc1ccc2c(=O)c3cccc(CC(=O)O)c3[nH]c2c1C" ?
Response: 0

Prompt: And "O=c1[nH]cc(-c2c[nH]c3ccccc23)nc1-c1c[nH]c2ccccc12" ?
Response: 0
